The reader will find reported growth values listed item by item below.
- System: E. coli TESEC Alr+ wild-type control
- protocol_text: growth (OD600 after 10 h); higher = more growth (less inhibition)
- measurement_parameters: compound 0.1 mM; raw OD600 reference: median of DMSO wells 0.241, cell-free background 0.041
Counter-ions that a name gives are not always drawn.
reported_property: growth

{"compound": "OCC(O)CN1CCN(c2ccccc2)CC1 (racemic) [Dropropizine (R,S)]", "reported_property": "growth", "observed_value": 0.241}
{"compound": "COc1cc(C(=O)NC2CCCNC2)cc(OC)c1OC (configuration not stated) [Troxipide]", "reported_property": "growth", "observed_value": 0.225}
{"compound": "CN(CCCN1c2ccccc2CCc2ccccc21)CC(=O)c1ccc(Cl)cc1", "reported_property": "growth", "observed_value": 0.133}
{"compound": "CN(C)C/C=C(/c1ccc(Br)cc1)c1cccnc1 [Zimelidine dihydrochloride monohydrate]", "reported_property": "growth", "observed_value": 0.207}
{"compound": "Cc1c(O)cccc1C(=O)N[C@@H](CSc1ccccc1)[C@H](O)CN1C[C@H]2CCCC[C@H]2C[C@H]1C(=O)NC(C)(C)C [Nelfinavir mesylate]", "reported_property": "growth", "observed_value": 0.279}
{"compound": "O=C1CN(/N=C/c2ccc([N+](=O)[O-])o2)C(=O)N1", "reported_property": "growth", "observed_value": 0.0453}
{"compound": "CN1CCCCC1CCN1c2ccccc2Sc2ccc([S+](C)[O-])cc21 (configuration not stated) [Mesoridazine besylate]", "reported_property": "growth", "observed_value": 0.169}
